- System: MDA-MB-231 complex spheroids, growth inhibition
- Assay protocol: Anticancer human tumor MDA-MB-231 cell line growth inhibition [Asc];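 note: spheroids exposed to compounds for 7 days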
- Assay context: second compound 0.949 µM; first compound 0.316 µM; hits give low values
Property: viability, T/C (%)
The figure you give is taken to be in %; do not add the unit.

Query: State viability, T/C on MDA-MB-231 complex spheroids, growth inhibition. Entry: CCN1CCN(Cc2ccc(Nc3ncc(F)c(-c4cc(F)c5nc(C)n(C(C)C)c5c4)n3)nc2)CC1 + CCN1C(C(=O)NC23CCC(C(=O)O)(CC2)CC3)C(c2cccc(Cl)c2F)C2(C(=O)Nc3cc(Cl)ccc32)C12CCCCC2
Result: 52.8

Query: # assay system MDA-MB-231 complex spheroids, growth inhibition: give viability, T/C of C=CC(=O)N1CCN(c2nc(=O)n(-c3c(C)ccnc3C(C)C)c3nc(-c4c(O)cccc4F)c(F)cc23)C(C)C1 (stereo not given) + CCN1C(C(=O)NC23CCC(C(=O)O)(CC2)CC3)C(c2cccc(Cl)c2F)C2(C(=O)Nc3cc(Cl)ccc32)C12CCCCC2
Result: 120

Query: With MDA-MB-231 complex spheroids, growth inhibition as the test system, provide measured viability, T/C for this compound: COc1c(OCCCN2CCOCC2)ccc2c3n(c(=NC(=O)c4cnc(N)nc4)nc12)CCN3 + CCN1C(C(=O)NC23CCC(C(=O)O)(CC2)CC3)C(c2cccc(Cl)c2F)C2(C(=O)Nc3cc(Cl)ccc32)C12CCCCC2
Result: 37

Query: GET viability, T/C where system = MDA-MB-231 complex spheroids, growth inhibition and item = O=C(c1cc(Cc2n[nH]c(=O)c3ccccc23)ccc1F)N1CCN(C(=O)C2CC2)CC1 + CCN1C(C(=O)NC23CCC(C(=O)O)(CC2)CC3)C(c2cccc(Cl)c2F)C2(C(=O)Nc3cc(Cl)ccc32)C12CCCCC2
Result: 103

Query: Recall the reported viability, T/C of CNC(C)C(=O)NC1CN(S(=O)(=O)c2cccc(S(=O)(=O)N3CCC4CCC(C(=O)NC(c5ccccc5)c5ccccc5)N4C(=O)C(NC(=O)C(C)NC)C3)c2)CCC2CCC(C(=O)NC(c3ccccc3)c3ccccc3)N2C1=O (stereo not given) + CCN1C(C(=O)NC23CCC(C(=O)O)(CC2)CC3)C(c2cccc(Cl)c2F)C2(C(=O)Nc3cc(Cl)ccc32)C12CCCCC2 on MDA-MB-231 complex spheroids, growth inhibition and write it down.
Result: 0.84
